Tested on: SR leukemia
protocol-description: NCI tumour cell line growth inhibition, 48 h
outcome-measure: TGI

Look over these answered cases.
> print(dat)
                                   compound   reading
1  COc1cc(OC)c(-c2ccc(OCc3ccccc3)c3c(OC)cc(C)cc23)c2c1C(C)=N[C@H](C)C2   3.08 µM
2  COc1cc(/C=C2\C[C@H]3[C@@H]4CCc5cc(O)ccc5[C@H]4CC[C@]3(C)C2=O)cc(OC)c1OC   10.7 µM
3  COc1ccc2c3c([nH]c2c1[N+](=O)[O-])C(C)=NCC3  > 100 µM
4  COc1cnc2c(c1)C(=O)c1c-2n(CCCNC(C)C)c(=O)c2cc(Cl)ccc12  0.464 µM
5  CN(C(=O)C1=CCC2(CC1)OCCO2)c1ccccc1OS(=O)(=O)C(F)(F)F  > 100 µM

Continue with the next compound.
q: # query: TGI of entry CCc1cc2c(oc3cc4ccccc4cc32)c(=O)[nH]1
a: > 10 µM
